System: MDA-MB-453
Assay: In vitro cytotoxicity assay (MTT)
Type: cell-based, human
Settings: 6 days incubation
reported metric: IC50 (nM)
Reply with just the number (in nM).

Brc1cnn2c(NCc3ccc(-c4ccccn4)cc3)nc(N[C@H]3CCNC3)nc12
0.77

Now consider the entry below.
Query :: I'd like to know its IC50. The molecule in question is CC[C@H](CO)Nc1nc(NCc2ccc(-c3ccccn3)cc2)c2ncn(C(C)C)c2n1 [CR8, reference compound]
Result :: 40.3

====

Tested on: MDA-MB-231
Assay: In vitro cytotoxicity assay (MTT)
Format: cell-based, human
Settings: 6 days incubation
pIC50 by entry:
Would you please state pIC50, meaning minus log10 of the concentration in mol/L, as a bare number?

Query :: I'd like to know its pIC50. The compound in question is Brc1cnn2c(NCc3ccc(-c4ccccn4)cc3)nc(N[C@H]3CCNC3)nc12
Result :: 9.25

Query :: Next compound: CC[C@H](CO)Nc1nc(NCc2ccc(-c3ccccn3)cc2)c2ncn(C(C)C)c2n1 [CR8, reference compound]
Result :: 7.98

====

System: NCI-N87
Assay: In vitro cytotoxicity assay (MTT)
Format: cell-based, human
Details: 6 days incubation
Method: Human cancer cell lines used in the present project were purchased from either the American Type Culture Collection (ATCC), The Leibniz Institute DSMZ German Collection of Microorganisms and Cell Cultures GmbH (DSMZ) or the European Collection of Authenticated Cell Cultures (ECACC). […] In vitro cytotoxicity of compounds of the disclosure was assessed on several cancerous human cell lines. […]
reported metric: IC50 (nM)
Reply with just the number (in nM).

Brc1cnn2c(NCc3ccc(-c4ccccn4)cc3)nc(N[C@H]3CCNC3)nc12
0.43

Now consider the entry below.
Query :: I'd like to know its IC50. The molecule in question is CC[C@H](CO)Nc1nc(NCc2ccc(-c3ccccn3)cc2)c2ncn(C(C)C)c2n1 [CR8, reference compound]
Result :: 62.2
